Target: purified HLA DRB1*0404 (human)
Experiment: competitive inhibition of 125I-labeled peptide binding to purified HLA
measured_parameter: pIC50
Kindly note that pIC50 refers to -log10 of the concentration in mol/L and answer with the value alone.

Task item: Give reported pIC50 value for RREVHIYYLEKANKI (modifications not checked) [Flu.PA.127 peptide …]
Reply: 6.74

Reference for the values: patent US20080032921A1
